Biological target: T1, canine OX40L, full length membrane form, expressed on HEK293 cells (canine)
T1 chain: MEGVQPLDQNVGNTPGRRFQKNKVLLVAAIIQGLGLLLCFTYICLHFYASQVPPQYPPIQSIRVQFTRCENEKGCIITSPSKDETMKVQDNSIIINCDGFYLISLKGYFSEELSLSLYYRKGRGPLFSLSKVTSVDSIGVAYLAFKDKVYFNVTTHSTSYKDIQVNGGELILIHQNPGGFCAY
Assay: cell-based or functional assay
VALUE KIND: % Signal Inhibition Rep1 (%)
Give bare numbers, in %.

Check out these entries, answers already filled in.
| BINDER | % Signal Inhibition Rep1 [%] |
| --- | --- |
| PMX088 (antibody, V domains shown) VH: EVQLVESGGDLVKPGGSLRLSCVASGFTFNTYHMNWVRQAPGKGLHWVAFINSGGTGTGYSDTVKGRFTISRDYAKNTLYLQMNSLRAEDTAVYYCVSGSIWTHFDYWGQGTLVTVSS VL: SYVLTQLPSVSMTLRQTAHITCGGDIIGSKSVYWYQQKLGQAPVLIIYRDTNRPTGIPERFSGASSGNTATLTISGALAEDEADYYCQVWDSNTQAVFGGGTHLTVL | 17 |
| PMX099 (antibody, V domains shown) VH: EVQLVESGGDLVRPGGSLRLSCVASGFTFSSYHMNWVRQAPGKGLQWVAFINSGGSSTTYADVVRGRFTISRDYAKNTLYLQMNSLRAEDTAVYYCASGSIWTHFDYWGQGTLVTVSS VL: SFVLTQLPSVSVTLRQTARITCGGDSIGTKSVYWYQQKLGQAPVLIIYRDSNRPTGIPERFSGASSGNTATLTISGALAEDEADYYCQVWDSSNKAMFGGGTHLTVL | 25.1 |

Continue with the next binder.
The value of % Signal Inhibition Rep1 measured for the binder PMX098 (antibody, V domains shown) VH: EVQLVESGGDLVKPGGSLRLSCVASGFTFNTYHMNWVRQAPGKGLHWVAFINSGGSGTSYADTVKGRFTISRDYAKNTLYLQMNSLRAEDTAVYYCASGSIWTHFDYWGQGTLVTVSS VL: SYVLTQLPSVSLTLRQTAHITCGGDIIGSKSVYWYQQKLGQAPVLIIYRDNNRPTGIPERFSGASSGNTATLTISGALAEDEADYYCQVWDSSTQAMFGGGTHLTVL turned out to be 40.4
